Source listed as ChEMBL document CHEMBL5537109.

Molecular target: UniProt P0DTD1
Test: Inhibition of SARS-CoV-2 3CL protease
Measure: IC50 (nM)
One number for each entry, in nM.

In: Note down IC50 recorded for COc1cc(O)c(C(=O)[C@@H]2[C@H](CC=C(C)C)C(C)=CC[C@H]2c2ccccc2)c(O)c1
Out: 810

====

Please provide measured CC50 at 24 h for the entries that follow.
Test: Cytotoxicity against African green monkey Vero E6 cells assessed as reduction in cell growth incubated for 24 hrs by WST-8 assay
Assay type: toxicity, cell-based, Vero C1008
Settings: chlorocebus sabaeus

// worked examples, CC50 at 24 h included
Substance smiles	CC50 at 24 h
O=c1c(O)c(-c2cc(O)c(O)c(O)c2)oc2cc(O)cc(O)c12	> 200 µM
COc1cc(O)c(C(=O)[C@@H]2[C@H](CC=C(C)C)C(C)=CC[C@H]2c2ccccc2)c(O)c1	14.7 µM
O=C1c2c(O)cc(O)cc2O[C@H](c2cc(O)c(O)c(O)c2)[C@H]1O	> 200 µM
O=c1cc(-c2ccccc2)oc2cc(O)c(O)c(O)c12	> 200 µM

Alright, here's another molecule for you.
In: Please supply the value of reported CC50 at 24 h for the item O=C(O)[C@H]1O[C@@H](Oc2cc3oc(-c4ccccc4)cc(=O)c3c(O)c2O)[C@H](O)[C@@H](O)[C@@H]1O
Out: > 200 µM
